Each entry below carries its recorded kon.
# subject.of.test: T1, human Nectin-4 extracellular antigen hNectin-4-His (human, UniProt Q96NY8 32-349)
# T1 construct: C-terminal 8xHis tag included
# T1 sequence: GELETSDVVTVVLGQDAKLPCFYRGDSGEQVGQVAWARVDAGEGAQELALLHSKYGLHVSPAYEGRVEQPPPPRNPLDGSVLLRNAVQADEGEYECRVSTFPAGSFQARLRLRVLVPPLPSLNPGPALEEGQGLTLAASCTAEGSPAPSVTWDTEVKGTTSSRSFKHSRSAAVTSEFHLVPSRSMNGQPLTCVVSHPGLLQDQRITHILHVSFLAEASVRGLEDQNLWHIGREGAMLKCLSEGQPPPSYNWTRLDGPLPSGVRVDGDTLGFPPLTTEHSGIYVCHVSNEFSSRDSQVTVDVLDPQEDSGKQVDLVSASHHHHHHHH
# experiment.summary: SPR, antibody on Protein A chip, 1:1 fit

# binder, kon (M⁻¹ s⁻¹)
data = [
    ("antibody 10F4-2C12 (antibody, human IgG1, kappa, V domains shown) VH: EVQLVESGGGLVQPGGSLRLSCAASGYNFGDYSMSWVRQAPGKGLEWVSVIDTTSAYTRYADSVKGRFTISRDNSKNTLYLQMNSLRAEDTAVYYCAREYSDVVDYVSVRTPLDYWGQGTLVTVSS VL: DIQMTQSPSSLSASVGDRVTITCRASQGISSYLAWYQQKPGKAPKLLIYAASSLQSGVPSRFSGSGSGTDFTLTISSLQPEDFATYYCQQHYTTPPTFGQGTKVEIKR", 570000),
    ("antibody 10F4-2F11 (antibody, human IgG1, kappa, V domains shown) VH: EVQLVESGGGLVQPGGSLRLSCAASGYNFTSYDMSWVRQAPGKGLEWVSGIKTGGGSARYADSVKGRFTISRDNSKNTLYLQMNSLRAEDTAVYYCAREYSDVVDYVSVRTPLDYWGQGTLVTVSS VL: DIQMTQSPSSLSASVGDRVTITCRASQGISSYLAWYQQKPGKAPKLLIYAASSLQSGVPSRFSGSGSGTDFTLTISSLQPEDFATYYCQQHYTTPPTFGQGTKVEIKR", 406000),
]
